All figures here come from patent US12077483B2.

# TEST_SUMMARY: pKa of amine lipid by TNS fluorescence
# Type: physicochemical
# TEST_PARAMETERS: probe TNS (6-(p-toluidino)-2-naphthalenesulfonic acid sodium salt), unformulated amine lipid in ethanol, sodium phosphate buffers -9.0
READOUT_KIND: pKa

CCCCCC/C=C\COC(=O)CCCCCCCC(=O)OCC(COC(=O)CCCCCCCC(=O)OC/C=C\CCCCCC)OC(=O)CCC(CCCCCCCCCCCC)OC(=O)NCCN(C)CC (centres unmarked): 6.19
CCCCC/C=C\C/C=C\CCCCCCCC(=O)OCC(COC(=O)CCCCCCC/C=C\C/C=C\CCCCC)OC(=O)CCC(CCCCCCCCCCCC)OC(=O)OCCCN(C)C (centres unmarked): 6.35
CCCCC/C=C\C/C=C\CCCCCCCC(=O)OCC(COC(=O)CCCCCCC/C=C\C/C=C\CCCCC)OC(=O)CCCC(CCCCCCCCCCCC)OC(=O)OCCCN(C)C (centres unmarked): 6.12
CCCCCCCCCCOC(=O)CCCCCCCC(=O)OCC(COC(=O)CCCCCCCC(=O)OCCCCCCCCCC)OC(=O)CC(CCCCCCCC)OC(=O)NCCN(C)CC (centres unmarked): 6.28
CCCCC/C=C\C/C=C\CCCCCCCC(=O)OCC(COC(=O)CCCCCCC/C=C\C/C=C\CCCCC)OC(=O)CCC(CCCCCCCCCC)OC(=O)OCCCN1CCCC1 (centres unmarked): 6.15
CCCCC/C=C\C/C=C\CCCCCCCC(=O)OCC(COC(=O)CCCCCCC/C=C\C/C=C\CCCCC)OC(=O)CCC(CCCCCCC)OC(=O)OCCCN1CCCC1 (centres unmarked): 6.17
CCCCC/C=C\C/C=C\CCCCCCCC(=O)OCC(COC(=O)CCCCCCC/C=C\C/C=C\CCCCC)OC(=O)CCC(CCCCCC)OC(=O)NCCN1CCCC1 (racemic): 6.5
CCCCC/C=C\C/C=C\CCCCCCCC(=O)OCC(COC(=O)CCCCCCC/C=C\C/C=C\CCCCC)OC(=O)CCC(CCCCCCCC)OC(=O)NCC1CCCN1C (centres unmarked): 6.35
CCCCC/C=C\C/C=C\CCCCCCCC(=O)OCC(COC(=O)CCCCCCC/C=C\C/C=C\CCCCC)OC(=O)CCC(CCCCCC(C)C)OC(=O)NCCN(C)CC (centres unmarked): 6.42
CCCCC/C=C\C/C=C\CCCCCCCC(=O)OCC(COC(=O)CCCCCCC/C=C\C/C=C\CCCCC)OC(=O)CCC(CCCCCCCCCCCC)OC(=O)OC1CCN(C)CC1 (centres unmarked): 5.99
CCCCC/C=C\C/C=C\CCCCCCCC(=O)OCC(COC(=O)CCCCCCC/C=C\C/C=C\CCCCC)OC(=O)CCC(CCCCCCCC)OC(=O)OCCCN(C)CC (centres unmarked): 5.95

---

# TEST_SUMMARY: LNP average particle size and polydispersity by dynamic light scattering
# Format: physicochemical
# TEST_PARAMETERS: LNP with the compound as amine lipid; Expt. 9; composition ratio (mol %) 50/9/38/3 for Cmpnd 49, 50/10/38.5/1.5 for the others
READOUT_KIND: PDI

Check out these entries, answers already filled in.
CCCCC/C=C\C/C=C\CCCCCCCC(=O)OCC(COC(=O)CCCCCCC/C=C\C/C=C\CCCCC)OC(=O)CCC(CCCCCC)OC(=O)NCCN1CCCC1 (racemic): 0.04
CCCCC/C=C\C/C=C\CCCCCCCC(=O)OCC(COC(=O)CCCCCCC/C=C\C/C=C\CCCCC)OC(=O)CCC(CC/C=C\CCCCC)OC(=O)NCCN(C)CC (centres unmarked): 0.03

I. CCCCC/C=C\C/C=C\CCCCCCCC(=O)OCC(COC(=O)CCCCCCC/C=C\C/C=C\CCCCC)OC(=O)CCC(CC/C=C\CCCCC)OC(=O)NCCN1CCCC1 (centres unmarked)
II. CCCCC/C=C\C/C=C\CCCCCCCC(=O)OCC(COC(=O)CCCCCCC/C=C\C/C=C\CCCCC)COC(=O)C(C)(C)C(CCCCCC)OC(=O)NCCN1CCCC1 (centres unmarked)
III. CCCCC/C=C\C/C=C\CCCCCCCC(=O)OCC(COC(=O)CCCCCCC/C=C\C/C=C\CCCCC)OC(=O)CC[C@H](CCCCCC)OC(=O)NCCN1CCCC1
Problem: # sort list by recorded PDI, greatest to least // ordering of labels required in reply
Result: II, I, III
(II: 0.05, I: 0.03, III: 0.01)
